Quick list: protein stability index per entry.
# Test system: Saccharomyces cerevisiae
# procedureSummary: protein stability index of tFT-peptide fusion (C-terminal peptide) (PSI (0-1 scale)); higher = more stable (slower turnover)
# conditionsUsed: genetic background: wild type; temperature: 30 C
// keep it numeric: no unit symbol after the value

# annotated cases, reported protein stability index shown
> print(dat)
   sequencestring                 endpoint  experimentalvalue
1    PFFFLPPSRPRP  protein stability index              0.671
2    RPPPHLTPRVSL  protein stability index              0.689
3    PVLIFTWVIVCH  protein stability index              0.162
4    FPRLPSRPLSSL  protein stability index               0.69

Continue with the next sequence.
Data request: Identify the measured protein stability index of "PTFPPPPRTPPS" for Saccharomyces cerevisiae.
Data returned: 0.719

###

# System: Saccharomyces cerevisiae
# procedureSummary: protein stability index of tFT-peptide fusion in deletion strain of DAS1 (PSI (0-1 scale)); higher = more stable (slower turnover)
Classification field: Yes = protein stability index at or over 0.6; No = protein stability index under 0.6.

> print(dat)
   sequencestring  classname
1    VRLAVGGWRLVG        Yes
2   ARWRVGLWRGASG        Yes
3    RLIQPLPVIFLN         No

Data request: Determine whether measured protein stability index meets or exceeds 0.6 for "CTSCGYKVRTNN"
Data returned: Yes

Data request: Check this sequence for protein stability index at or above 0.6: "CTSGGYKFRTNN"
Data returned: Yes

Data request: Assess whether reported protein stability index for "LKHKKGQKQKIN" sits at 0.6 or higher.
Data returned: No

Data request: # check: protein stability index of "ARWRVELWRGAS" is greater than or equal to 0.6
Data returned: Yes

Data request: Could you verify whether the entry "KKHKCGQKQKIN" shows protein stability index of no less than 0.6?
Data returned: No

Data request: protein stability index >= 0.6 for "FSMRWTWRYWVN" ?
Data returned: Yes

Data request: Determine whether this sequence has protein stability index no lower than 0.6: "LKILRQKMKHQN"
Data returned: Yes

Data request: Check if protein stability index >= 0.6 (inclusive). Item: "RLIQPLPVQFLH"
Data returned: No

###

# System: Saccharomyces cerevisiae
# procedureSummary: protein stability index of tFT-peptide fusion (C-terminal peptide) (PSI (0-1 scale)); higher = more stable (slower turnover)
# conditionsUsed: genetic background: wild type; temperature: 30 C
endpoint: protein stability index
No unit in the answer, please; the number alone is enough.

> print(dat)
   sequencestring                    system  experimentalvalue
1    SSDFTSRHTRPP  Saccharomyces cerevisiae              0.639
2    HTAYPPPHRTPP  Saccharomyces cerevisiae              0.629
3    PSSPPSLPSPLP  Saccharomyces cerevisiae              0.691
4    RSTPPHAHRSPP  Saccharomyces cerevisiae              0.716
5    VACFASRVLCRG  Saccharomyces cerevisiae              0.503

Data request: Fill blank: measured protein stability index of the sequence "LYVQSVCFSVPR" is ____.
Data returned: 0.422

###

# System: Saccharomyces cerevisiae
# procedureSummary: protein stability index of tFT-peptide fusion (C-terminal peptide) (PSI (0-1 scale)); higher = more stable (slower turnover)
# conditionsUsed: genetic background: doa10 deletion; temperature: 30 C
Each entry below carries its reported protein stability index.
Write the value as a bare number.

> print(dat)
   sequencestring  experimentalvalue
1    DLVGRETRMRLN              0.202
2    SFVFLVRRWLFV              0.136
3    FFVFPFGLLFLS              0.252
4    SIWVGSRFRWVV              0.134

Data request: // protein stability index lookup, key: "VVLWTFLLEVSA"
Data returned: 0.0508

Data request: Which protein stability index is listed for "MTLYSFSSALLA" ?
Data returned: 0.27

Data request: # query: protein stability index of entry "ESCFGMAIFCVT"
Data returned: 0.301

Data request: # protein stability index lookup, item "RSAVECRVTNIR"
Data returned: 0.639

Data request: protein stability index for "RGPAYATCHLLC" ?
Data returned: 0.119
